Task for the reader: assign each of the following compounds its reported MIC.
tested on: S. aureus (VISA) ATCC 700699; test: MIC broth microdilution (CLSI); format: cell-based; details: Staphylococcus aureus; read-out: MIC
Answer in µg/mL, number only, no unit symbol.

Request: I would be grateful if you could share the reported MIC for CO[C@@H]1[C@@H](OC(N)=O)[C@@H](O)[C@H](Oc2ccc3c(O)c(NC(=O)c4ccc(O)c(CC=C(C)C)c4)c(=O)oc3c2C)OC1(C)C [novobiocin] .
Result: 0.0312

Request: Query (compound): Cc1[nH]c(C(=O)Nc2nc3c(N4CC[C@H](N(C)C)C4)cc(C(=O)O)cc3s2)c(Cl)c1Cl.Cl.N [7l] ; field requested: MIC
Result: 0.5

Request: Field request: MIC | item: COCC1CCCN1c1cc(C(=O)O)cc2sc(NC(=O)c3[nH]c(C)c(Cl)c3Cl)nc12 (stereo not drawn) [7n]
Result: 0.0625

Request: For COC[C@@H]1CCCN1c1cc(C(=O)O)cc2sc(NC(=O)c3[nH]c(C)c(Cl)c3Cl)nc12 [7o] , what is its reported MIC?
Result: 0.0625

Request: For Cc1[nH]c(C(=O)Nc2nc3c(N4CCOC[C@@H]4C)cc(C(=O)O)cc3s2)c(Cl)c1Cl [7d] , what is its reported MIC?
Result: 0.0625

Request: Quick check: MIC of Cc1[nH]c(C(=O)Nc2nc3c(N4[C@@H]5CC[C@H]4COC5)cc(C(=O)O)cc3s2)c(Cl)c1Cl [7h] ?
Result: 0.0625

Request: Entry Cc1[nH]c(C(=O)Nc2nc3c(N4CCOCC4)cc(C(=O)O)cc3s2)cc1Cl [16a] has what MIC?
Result: 0.5

Request: Need MIC, item Cc1[nH]c(C(=O)Nc2nc3c(N4CCC(O)CC4)cc(C(=O)O)cc3s2)c(Cl)c1Cl [7p]
Result: 0.5

Request: Requested read-out: MIC. Entry: Cc1[nH]c(C(=O)Nc2nc3c(N4CCOCC4)cc(C(=O)O)cc3s2)cc1F [16b]
Result: 8

Request: Recorded MIC for Cc1[nH]c(C(=O)Nc2nc3c(N4CC[C@H](N)C4)cc(C(=O)O)cc3s2)c(Cl)c1Cl.Cl [8a] , please?
Result: 8
